# Test system: NCI-H23
# test.protocol: NCI tumour cell line growth inhibition, 48 h
Calls of active or inactive are those of the source. Rule as the data show it: active = GI50 up to about 1.1 µM and inactive = higher.
A correct response names exactly one class from yes (active), no (inactive)

See these solved cases before continuing.
Req: Entry N#CC(c1ccccc1)N(CCOCCOCCN(C(=O)c1cccc2ccccc12)C(C#N)c1ccccc1)C(=O)c1cccc2ccccc12 (centres undefined) : call = ?
Resp: no

Req: Consider next the molecule COC(=O)C12C3C4C5C3(C#N)C1C5(C(=O)OC)C42C(=O)N(C(C)C)C(C)C (centres undefined) in the same way.
Resp: no

Req: Consider next the molecule "CSc1nnc2n1-c1ccccc1SCC2" in the same way.
Resp: no

Req: Consider next the molecule "CC1(C)C[C@H]2[C@H](O)C(CO)=C3C(=O)[C@@H](O)[C@]3(C)[C@H]2C1" in the same way.
Resp: no

Req: Consider next the molecule "COc1ccc(-c2cc(C3CC3)nc(SCC(=O)O)c2C#N)cc1" in the same way.
Resp: no

Further cases:
Req: Entry "CCCCSC1=N/C(=C\c2ccco2)C(Cl)=N1" : call = ?
Resp: no

Req: Consider next the molecule "CCOc1cc2c(cc1O)/C(=N\O)C[C@@H]1[C@@H]2CC[C@]2(C)[C@@H](O)CC[C@@H]12" in the same way.
Resp: yes

Req: Consider next the molecule "CCSc1n/c(=C\c2ccc(N(C)C)cc2)c2nnnn12" in the same way.
Resp: no

Req: Consider next the molecule "O=C(Nc1ccc(Cl)cc1)c1cc2cc(/N=N/c3ccccc3Cl)ccc2oc1=O" in the same way.
Resp: no

* * *

# Test system: MOLT-4
# test.protocol: NCI tumour cell line growth inhibition, 48 h
Active and inactive are the calls of the source. Rule as the data show it: active = GI50 up to about 1.1 µM and inactive = higher.
A correct response names exactly one class from active, inactive

Req: Entry "CCOC(=O)C1=NN(c2ccc(C)cc2)C2=CC(C)=NN(C)C(=S)N21" : call = ?
Resp: inactive

Further cases:
Req: Entry "COC(=O)c1cc(C#N)[nH]c1-c1cccs1" : call = ?
Resp: inactive

Req: Consider next the compound "CN(C)CCC(=O)N1C/C(=C/c2ccccc2)C(=O)/C(=C\c2ccccc2)C1" in the same way.
Resp: active

* * *

# System: TK-10
# test.protocol: NCI tumour cell line growth inhibition, 48 h
Calls of active or inactive are those of the source. Rule as the data show it: active = GI50 up to about 1.1 µM and inactive = higher.
A correct response names exactly one class from active, inactive

See these solved cases before continuing.
Req: Entry "CCOC(=O)/C=C(/C(=O)OCC)n1cc(Cl)c(=O)n(CC(=O)OCC)c1=O" : call = ?
Resp: inactive

Req: Consider next the compound "COC(=O)CSc1nnc(-c2ccc(O)c([N+](=O)[O-])c2)[nH]1" in the same way.
Resp: inactive

Req: Consider next the compound COc1ccc(C(=O)C2CC3(CCC2(O)c2ccc(OC)cc2)CC(=O)Nc2ccccc2C3=O)cc1 (configuration not stated) in the same way.
Resp: inactive

Further cases:
Req: Entry "CCOC(=O)/C=C(/C(=O)OCC)n1cc(C)c(=O)n(/C(=C/C(=O)OCC)C(=O)OCC)c1=O" : call = ?
Resp: inactive

Req: Consider next the compound C=C1CC2[C@H](C)C(=O)CCC2(C)C2=C1C1CCC(C(C)CCC(=C)C(C)C(=O)O)C1(C)CC2=O (some centres not stated) in the same way.
Resp: inactive

Req: Consider next the compound "O=C(O)Cn1c(=O)[nH]c(=O)c2c1ncn2Cc1ccccc1" in the same way.
Resp: inactive

Req: Consider next the compound "CN(C)C(=S)/N=c1\ss/c(=N\C(=S)N(C)C)n1-c1ccc(Cl)c(Cl)c1" in the same way.
Resp: inactive

Req: Consider next the compound "CC(=O)OCOC(=O)CN(CC(=O)OCOC(C)=O)Cc1cc2c(cc1OC(C)=O)Oc1cc(OC(C)=O)c(CN(CC(=O)OCOC(C)=O)CC(=O)OCOC(C)=O)cc1C21OC(=O)c2ccccc21" in the same way.
Resp: active

Req: Consider next the compound CCOC(=O)C1=C(C)N(Cc2ccc(Cl)cc2Cl)C2(O)C(OC)CC(=O)C3C(=O)N(c4ccccc4)C(=O)C132 (configuration not stated) in the same way.
Resp: inactive

Req: Consider next the compound COC(=O)c1ccccc1C1CN=NC12Cc1ccc(C)c(C)c1C2=O (configuration not stated) in the same way.
Resp: inactive

Req: Consider next the compound "CCSc1n/c(=C\c2ccc(N(C)C)cc2)c2nnnn12" in the same way.
Resp: inactive

Req: Consider next the compound "CC(=O)Nc1nc(NC(C)=O)c2nc(CO)[nH]c2n1" in the same way.
Resp: inactive

Req: Consider next the compound CCCCOC1CC2(c3ccc(OC)cc3)C(=O)c3ccccc3N2O1 (configuration not stated) in the same way.
Resp: inactive

Req: Consider next the compound COc1cc2c(cc1OC)C(C(=O)c1cccc(OC)c1OC)C(=O)N(C)CC2 (configuration not stated) in the same way.
Resp: inactive

Req: Consider next the compound SC1CCCN(Cc2ccccc2)C1 (configuration not stated) in the same way.
Resp: inactive

Req: Consider next the compound "COC1=C(Cl)C(=O)c2c(O)ccc(O)c2C1=O" in the same way.
Resp: active

Req: Consider next the compound O=CC12C3CCC1C2C(=O)C3 (configuration not stated) in the same way.
Resp: inactive

Req: Consider next the compound "CC(C)OP(=S)(NC(=S)c1ccccc1)OC(C)C" in the same way.
Resp: inactive

Req: Consider next the compound "Brc1ccc2c(-c3csc(-c4c[nH]c5ccccc45)n3)c[nH]c2c1" in the same way.
Resp: inactive

Req: Consider next the compound "Nc1nc(N)c(CCCCc2ccc([N+](=O)[O-])cc2)c(N)n1" in the same way.
Resp: inactive

Req: Consider next the compound "COc1ccc2c(c1)CCc1[nH]c3ccccc3c1CCCC2" in the same way.
Resp: inactive

Req: Consider next the compound "Cc1cccc(C)c1Nc1nc(C)c(C(=O)CC(=O)C(=O)Nc2c(C(C)C)cccc2C(C)C)s1" in the same way.
Resp: inactive
